Readout name: MDR1-MDCK efflux ratio

Sample records with MDR1-MDCK efflux ratio:
In [3]: df
Out[3]:
                                   molecule            readout_name  data_value
0  CCn1c(C(=O)N(C2CC2)C2CC2)cc2c3c(ncn3C)c(Nc3cc(C)n(C)n3)nc21  MDR1-MDCK efflux ratio          21
1  CN1CCN(S(=O)(=O)c2ccc(C(F)(F)F)nc2)C(C)(C)C1  MDR1-MDCK efflux ratio       0.642
2  Cc1cc(C)n2ncc(C(=O)Nc3cccc(C(=O)O)c3)c2n1  MDR1-MDCK efflux ratio       0.709
3  O=C1CC(N2CCCN(c3ccc(C(F)(F)F)cn3)CC2)C(=O)N1c1ccccc1 (stereo not given)  MDR1-MDCK efflux ratio       0.761
4   O=C(Nc1ccc2ccccc2n1)c1ccc(N2CCOC2=O)cc1  MDR1-MDCK efflux ratio       0.594

A. Cc1cc(Nc2ccc(F)cn2)cc(C2CCN(C(=O)CCc3cccc(Cl)c3)C2)n1 (stereo not given)
B. O=C(C1CCC1)N1CCC[C@H]1Cn1nnc(-c2cccs2)n1
C. C[C@H](NC(=O)CCC(F)(F)F)C(=O)N[C@@H]1C(=O)N(CCO)c2ncccc2-c2ccccc21
D. c1cc(Nc2cc(C3CC3)[nH]n2)nc(Nc2ccc3nc[nH]c3c2)n1
E. Cc1ccc(-n2nc(C(C)(C)C)cc2NC(=O)Nc2ccc(OCCN3CCOCC3)c3ccccc23)cc1
Place the items in sequence of falling MDR1-MDCK efflux ratio. Please list the labels according to the requested order.
C, A, E, D, B
(C: 24, A: 9.81, E: 6.55, D: 2.39, B: 0.712)
